Where do the numbers come from? From ChEMBL document CHEMBL5154918.

system_tested: Mas-related G-protein coupled receptor member X1 (Homo sapiens, UniProt Q96LB2)
Sequence (Q96LB2 whole entry): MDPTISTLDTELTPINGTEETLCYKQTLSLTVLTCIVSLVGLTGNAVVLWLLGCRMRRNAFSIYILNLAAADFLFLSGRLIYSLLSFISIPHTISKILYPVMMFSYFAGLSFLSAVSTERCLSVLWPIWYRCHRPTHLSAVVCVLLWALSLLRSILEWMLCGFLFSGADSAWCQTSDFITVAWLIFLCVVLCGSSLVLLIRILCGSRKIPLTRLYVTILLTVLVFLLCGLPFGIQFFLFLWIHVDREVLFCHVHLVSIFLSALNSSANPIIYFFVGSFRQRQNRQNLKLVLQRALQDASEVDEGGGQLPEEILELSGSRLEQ
protocol_description: Positive allosteric modulator activity at human MRGPRX1 expressed in HEK293 cells in presence of BAM8-22 by Fluo4-dye based FLIPR assay
pEC50: −log10 of the molar value.
test_readout: pEC50

A: O=C(Nc1cccc2c1OCCO2)c1ccccc1NS(=O)(=O)C1CC1
B: O=C(Nc1cccc2occc12)c1ccccc1NS(=O)(=O)C1CC1
C: O=C(Nc1ccccc1OCC(F)(F)F)c1ccccc1NS(=O)(=O)C1CC1
With regard to pEC50, arrange the entries in ascending order, please. Please respond with the labels ordered as the question requires. B, A, C

###

system_tested: Mas-related G-protein coupled receptor member X1 (Homo sapiens, UniProt Q96LB2)
protocol_description: Positive allosteric modulator activity at human MRGPRX1 expressed in HEK293 cells assessed as maximal efficacy at 5 uM in presence of BAM8-22 by Fluo4-dye based FLIPR assay relative to control
Type: cell-based
test_readout: Emax (%)

P: O=C(Nc1cccc2c1OCO2)c1ccccc1NS(=O)(=O)C1CC1
Q: CCOc1cc(F)ccc1NC(=O)c1ccccc1NS(=O)(=O)C1CC1
R: O=C(Nc1cccc2c1OCCC2)c1ccccc1NS(=O)(=O)C1CC1
Which order do these items fall in when sorted by Emax from largest to smallest? Lab note: final answer is the ordered label list. R, P, Q
(R: 27%, P: 7.4%, Q: -10.5%)

###

system_tested: Mas-related G-protein coupled receptor member X1 (Homo sapiens)
protocol_description: Positive allosteric modulator activity at human MRGPRX1 expressed in HEK293 cells in presence of BAM8-22 by Fluo4-dye based FLIPR assay
Type: cell-based
test_readout: EC50 (µM)

{"structure": "CCOc1ccccc1NC(=O)c1cc(F)ccc1NS(=O)(=O)C1CC1", "EC50, µM": 0.173}

a: CCOc1ccc(F)cc1NC(=O)c1cc(Cl)ccc1NS(=O)(=O)C1CC1
b: CCOc1ccccc1NC(=O)c1ccccc1NS(=O)(=O)C1CC1
Lab notebook, comparison: a versus b , higher EC50 goes to which? Could you answer with the label of the item you picked? b

###

system_tested: Mas-related G-protein coupled receptor member X1 (Homo sapiens, UniProt Q96LB2)
protocol_description: Positive allosteric modulator activity at human MRGPRX1 expressed in HEK293 cells assessed as maximal efficacy at 5 uM in presence of BAM8-22 by Fluo4-dye based FLIPR assay relative to control
Assay type: cell-based
stated_conditions: filed as positive allosteric modulator
test_readout: Emax (%)

Solved entries:
{"structure": "CCS(=O)(=O)Nc1ccc(C)cc1C(=O)Nc1ccccc1OCC(F)(F)F", "measurement_unit": "%", "observed_measurement": 58.4}
{"structure": "CCS(=O)(=O)Nc1ccc(Cl)cc1C(=O)Nc1ccccc1OCC(F)(F)F", "measurement_unit": "%", "observed_measurement": 89.5}
{"structure": "O=C(Nc1ccccc1OCC1CC1)c1ccccc1NS(=O)(=O)C1CC1", "measurement_unit": "%", "observed_measurement": 61.5}

I: Cc1ccc(NS(=O)(=O)C2CC2)c(C(=O)Nc2ccccc2OCC(F)(F)F)c1
II: O=C(Nc1ccccc1OCC(F)(F)F)c1cc(F)ccc1NS(=O)(=O)C1CC1
Hey, between I and II which has a smaller measured Emax? Identify your selection by its label. II
(II: 59.8%, I: 89.9%)

1: CCOc1ccccc1NC(=O)c1cc(Cl)ccc1NS(=O)(=O)C1CC1
2: CCOc1ccc(NC(=O)c2ccccc2NS(=O)(=O)C2CC2)c(OCC)c1
Quick one: lower Emax, 1 or 2 ? # reply format: chosen label 2

###

system_tested: Mas-related G-protein coupled receptor member X1 (Homo sapiens, UniProt Q96LB2)
protocol_description: Positive allosteric modulator activity at human MRGPRX1 expressed in HEK293 cells assessed as maximal efficacy at 5 uM in presence of BAM8-22 by Fluo4-dye based FLIPR assay relative to control
Format: cell-based
test_readout: Emax (%)

{"compound": "CCOc1ccccc1CNC(=O)c1ccccc1NS(=O)(=O)C1CC1", "system_tested": "Mas-related G-protein coupled receptor member X1 (Homo sapiens, UniProt Q96LB2)", "Emax, %": 12.7}
{"compound": "CCOc1ccccc1-c1nnc(-c2ccccc2NS(=O)(=O)C2CC2)[nH]1", "system_tested": "Mas-related G-protein coupled receptor member X1 (Homo sapiens, UniProt Q96LB2)", "Emax, %": 7.5}
{"compound": "O=C(c1ccccc1NS(=O)(=O)C1CC1)N1CCCc2ccccc21", "system_tested": "Mas-related G-protein coupled receptor member X1 (Homo sapiens, UniProt Q96LB2)", "Emax, %": 6.8}
{"compound": "CCOc1ccccc1NC(=O)c1cc2ccccc2cc1NS(=O)(=O)C1CC1", "system_tested": "Mas-related G-protein coupled receptor member X1 (Homo sapiens, UniProt Q96LB2)", "Emax, %": 29.7}

I: COc1ccc(NC(=O)c2ccccc2NS(=O)(=O)C2CC2)cc1
II: CCOC1CCCCC1NC(=O)c1ccccc1NS(=O)(=O)C1CC1 (configuration not stated)
III: CCOc1ccccc1NC(=O)c1ccc(Cl)cc1NS(=O)(=O)C1CC1
IV: O=C(c1ccccc1NS(=O)(=O)C1CC1)N1CCOc2ccccc21
V: O=C(Nc1cccc2c1OC(F)(F)O2)c1ccccc1NS(=O)(=O)C1CC1
Reorder: Emax, max to min. Sort and list the labels as requested. III, II, V, IV, I
(III: 36.1%, II: 24.2%, V: 14.6%, IV: 2.7%, I: -15.6%)

1: CCOc1ccccc1Nc1nn(S(=O)(=O)C2CC2)c2ccccc12
2: COCCOc1ccccc1NC(=O)c1ccccc1NS(=O)(=O)C1CC1
3: CCOc1ccccc1Nc1nn(S(=O)(=O)C2CC2)c2ncccc12
4: CCOc1ccccc1NC(=O)c1ncccc1NS(=O)(=O)C1CC1
Please list these compounds in decreasing order of Emax. Order the labels as requested and give them as your answer. 2, 4, 1, 3

###

system_tested: Mas-related G-protein coupled receptor member X1 (Homo sapiens, UniProt Q96LB2)
protocol_description: Positive allosteric modulator activity at human MRGPRX1 expressed in HEK293 cells assessed as maximal efficacy at 5 uM in presence of BAM8-22 by Fluo4-dye based FLIPR assay relative to control
Type: cell-based
stated_conditions: filed as positive allosteric modulator
test_readout: Emax (%)

Observe how each entry below is paired with its result.
{"structure": "Cc1cc2cccc(NC(=O)c3ccccc3NS(=O)(=O)C3CC3)c2o1", "observed_measurement": 66.3}
{"structure": "CCOc1ccc(F)cc1NC(=O)c1cc(C)ccc1NS(=O)(=O)C1CC1", "observed_measurement": 106}
{"structure": "CCOc1ccccc1NC(=O)c1ccc(NS(=O)(=O)C2CC2)cc1", "observed_measurement": 70.6}
{"structure": "CCOc1ccccc1NC(=O)c1cc(F)ccc1NS(=O)(=O)C1CC1", "observed_measurement": 102}
{"structure": "CCOc1ccc(F)cc1NC(=O)c1cc(Cl)ccc1NS(=O)(=O)C1CC1", "observed_measurement": 104}

A: CCOc1ccccc1NC(=O)c1cc(F)ccc1NS(=O)(=O)CC
B: O=C(Nc1cccc2occc12)c1ccccc1NS(=O)(=O)C1CC1
# min-compare on Emax between A and B Write down the label attached to your selection. B

I: CCOc1ccccc1NC(=O)c1ccc(F)cc1NS(=O)(=O)C1CC1
II: CCOc1ccc(F)cc1NC(=O)c1cc(F)ccc1NS(=O)(=O)C1CC1
Quick check, higher Emax between I and II ? Reply briefly: the label of your chosen item. II
(II: 127%, I: 67.6%)

###

system_tested: Mas-related G-protein coupled receptor member X1 (Homo sapiens, UniProt Q96LB2)
protocol_description: Positive allosteric modulator activity at human MRGPRX1 expressed in HEK293 cells in presence of BAM8-22 by Fluo4-dye based FLIPR assay
test_readout: EC50 (µM)

P: O=C(Nc1ccccc1OCC(F)(F)F)c1cc(Cl)ccc1NS(=O)(=O)C1CC1
Q: CCOc1ccc(F)cc1NC(=O)c1cc(F)ccc1NS(=O)(=O)C1CC1
Of P and Q , whose reported EC50 is numerically smaller? When you have decided, please share the label of that item. Q
(Q: 0.013 µM, P: 0.915 µM)

a: Cc1cc2cccc(NC(=O)c3ccccc3NS(=O)(=O)C3CC3)c2o1
b: CCOc1ccccc1NC(=O)c1cc(Cl)ccc1NS(=O)(=O)C1CC1
Select one. Lower EC50: a or b Write the label of whichever entry you select. b

###

system_tested: UniProtKB Q96LB2
protocol_description: Positive allosteric modulator activity at human MRGPRX1 expressed in HEK293 cells in presence of BAM8-22 by Fluo4-dye based FLIPR assay
Format: cell-based
test_readout: EC50 (nM)

Study these solved cases before continuing.
{"structure": "CCOc1ccccc1NC(=O)c1ccc(F)cc1NS(=O)(=O)C1CC1", "EC50, nM": 860}
{"structure": "CCCOc1ccccc1NC(=O)c1ccccc1NS(=O)(=O)C1CC1", "EC50, nM": 506}
{"structure": "CCOc1ccc(F)cc1NC(=O)c1cc(Cl)ccc1NS(=O)(=O)CC", "EC50, nM": 206}
{"structure": "CCOc1ccc(F)cc1NC(=O)c1ccccc1NS(=O)(=O)C1CC1", "EC50, nM": 14}

I: CCOc1ccccc1NC(=O)c1cc(C)ccc1NS(=O)(=O)C1CC1
II: CC(C)Oc1ccccc1NC(=O)c1ccccc1NS(=O)(=O)C1CC1
Kindly identify the item with the lower EC50 figure among these two: I and II Answer = label. I
(I: 103 nM, II: 2830 nM)
